Below, each of the molecules is paired with its reported GI50 value.
System: A431 cells
Run Description: Cell growth inhibition (CellTiter-Glo), A431
Format: cell-based
Particulars: Homo sapiens, A-431, 72 h, 3 days

Reference set (2 entries):
C=CC(=O)N1CC(Nc2n[nH]c3ncnc(Nc4ccc(OCc5ccccn5)c(Cl)c4)c23)C1 | > 1000 nM
C=CC(=O)N1CCN(c2n[nH]c3ncnc(Nc4ccc(OCc5ccccn5)c(Cl)c4)c23)CC1 | > 1000 nM

Documented GI50 of `C=CC(=O)N1CCC(c2c[nH]c3ncnc(Nc4ccc(Oc5ccnc(NC6CCOCC6)c5)cc4F)c23)CC1` : > 1000 nM

The value of GI50 measured for the molecule `C=CC(=O)N1CCC(c2n[nH]c3ncnc(Nc4ccc(Oc5ccn(Cc6cc(C)ccn6)n5)cc4F)c23)CC1` turned out to be 200 to 1000 nM

Form: molecule = `C=CC(=O)N1CCC(c2ccn3ncnc(Nc4ccc(Oc5ccnc(N6CC(C)(OC)C6)c5)cc4F)c23)CC1` ; GI50 = > 1000 nM

Consider `C=CC(=O)N1CCC(c2n[nH]c3ncnc(Nc4ccc(Oc5nc(-c6cnc(C)c(F)c6)cs5)cc4F)c23)CC1` . Its measured GI50 is > 1000 nM

Consider `C=CC(=O)N1CCC(c2n[nH]c3ncnc(Nc4ccc(OCc5ccccn5)c(Cl)c4)c23)CC1` . Its measured GI50 is < 50 nM
